target_of_assay: Phosphatidylinositol 4,5-bisphosphate 3-kinase catalytic subunit alpha isoform (Homo sapiens, UniProt P42336)
Sequence (P42336 whole entry, canonical isoform): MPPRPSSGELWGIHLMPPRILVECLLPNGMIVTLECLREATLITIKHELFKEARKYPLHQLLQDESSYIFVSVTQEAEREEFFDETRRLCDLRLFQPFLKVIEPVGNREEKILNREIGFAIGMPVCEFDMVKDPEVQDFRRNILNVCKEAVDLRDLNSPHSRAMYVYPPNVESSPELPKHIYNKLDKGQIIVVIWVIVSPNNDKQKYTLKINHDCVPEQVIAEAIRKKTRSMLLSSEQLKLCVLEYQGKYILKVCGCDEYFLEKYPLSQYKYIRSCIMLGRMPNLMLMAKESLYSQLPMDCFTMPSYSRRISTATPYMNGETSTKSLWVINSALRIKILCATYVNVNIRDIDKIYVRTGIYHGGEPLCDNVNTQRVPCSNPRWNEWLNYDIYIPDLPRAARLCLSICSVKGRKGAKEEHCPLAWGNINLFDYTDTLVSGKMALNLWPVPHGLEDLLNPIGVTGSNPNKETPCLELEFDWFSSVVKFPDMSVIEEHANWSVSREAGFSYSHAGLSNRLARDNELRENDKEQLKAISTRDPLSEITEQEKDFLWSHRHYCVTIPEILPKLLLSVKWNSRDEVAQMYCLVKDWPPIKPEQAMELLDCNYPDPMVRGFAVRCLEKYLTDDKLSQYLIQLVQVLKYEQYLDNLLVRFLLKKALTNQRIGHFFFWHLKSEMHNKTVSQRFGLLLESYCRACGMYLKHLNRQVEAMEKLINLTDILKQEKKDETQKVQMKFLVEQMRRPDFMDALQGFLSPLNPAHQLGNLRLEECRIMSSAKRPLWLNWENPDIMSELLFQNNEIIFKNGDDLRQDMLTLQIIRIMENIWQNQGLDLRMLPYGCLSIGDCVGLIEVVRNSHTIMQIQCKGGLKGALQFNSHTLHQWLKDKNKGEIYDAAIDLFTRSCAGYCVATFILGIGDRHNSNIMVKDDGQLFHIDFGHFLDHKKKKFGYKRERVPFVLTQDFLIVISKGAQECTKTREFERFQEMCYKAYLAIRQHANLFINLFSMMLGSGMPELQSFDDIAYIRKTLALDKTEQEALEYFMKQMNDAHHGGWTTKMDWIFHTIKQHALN
procedure_text: Inhibition of PI3Kalpha (unknown origin) using PIP2 as substrate incubated for 1 hr in presence of ATP by Kinase Glo luminescence assay
Here, each record is paired with measured log10(IC50) data.
property: log10(IC50) (log10 of the value in nM)

| structure_string | numeric_value |
| --- | --- |
| COc1ccc(-c2ccc3ncc4nc(C)n(-c5ccc(F)cc5)c4c3c2)cc1 | 2.51 |
| Cc1nc2cnc3ccc(-c4cnc5[nH]ccc5c4)cc3c2n1-c1ccc(C#N)cc1 | 1.80 |
| Cc1nc2cnc3ccc(-c4ccc(C#N)cc4)cc3c2n1-c1ccc(F)cc1 | 2.55 |
| Cc1nc2cnc3ccc(-c4cnc5ccccc5c4)cc3c2n1-c1ccc(F)cc1 | 1.52 |
| Cc1nc2cnc3ccc(-c4ccc(O)cc4)cc3c2n1-c1ccc(F)cc1 | 1.95 |
| Cc1nc2cnc3ccc(-c4ccc(N)cc4)cc3c2n1-c1ccc(F)cc1 | 1.83 |
| Cc1nc2cnc3ccc(-c4cnc5[nH]ccc5c4)cc3c2n1-c1ccc(C(C)(C)C#N)nc1 | 0.54 |
| Cc1nc2cnc3ccc(-c4ccc(N)nc4)cc3c2n1-c1ccc(F)cc1 | 1.71 |
| COC(=O)c1ccc(-c2ccc3ncc4nc(C)n(-c5ccc(F)cc5)c4c3c2)cc1 | 2.40 |

Values from ChEMBL document CHEMBL5108059
